# Assay Info: Acute toxicity in Mice
# Format: in vivo, mice (SWISS, EOPS, NMRI/Han, female)
# Condition Summary: mouse, in vivo, po, oral administration, method of KARBER and BEHRENS
Label TRUE when LD50 at 360 h < 1000 mg/kg; otherwise FALSE.

Below 1000 mg/kg on LD50 at 360 h? Entry O=C1CCCCCC1CN1CCN(c2cccc(C(F)(F)F)c2)CC1 (centres unmarked) [LJ 1176]
FALSE

Lab note: LD50 at 360 h threshold 1000 mg/kg. Does this molecule come in strictly under it? OC(CN1CCN(c2ccc(F)c(C(F)(F)F)c2)CC1)CN1CCN(c2ccc(F)c(C(F)(F)F)c2)CC1 [LJ 1198]
TRUE

Hi there! Is LD50 at 360 h for OC1CCCCC1N1CCN(c2cccc(C(F)(F)F)c2)CC1 (centres unmarked) [LJ 1143] below 1000 mg/kg, do you know?
TRUE

# strict comparison: is reported LD50 at 360 h < 1000 mg/kg? input = O=C1CCCCC1CN1CCN(c2cccc(C(F)(F)F)c2)CC1 (centres unmarked) [LJ 1144]
FALSE

Consider OC1CCCCC1CN1CCN(c2cccc(C(F)(F)F)c2)CC1 (centres unmarked) [LJ 1161] . Does its LD50 at 360 h lie strictly below 1000 mg/kg?
FALSE

is_below(LD50 at 360 h, 1000 mg/kg) for O=C(CN1CCN(c2cccc(C(F)(F)F)c2)CC1)CN1CCN(c2cccc(C(F)(F)F)c2)CC1 [LJ 1163] ?
TRUE

Threshold test, LD50 at 360 h < 1000 mg/kg: O=C1CCCCC1CN1CCN(c2ccc(F)c(C(F)(F)F)c2)CC1 (centres unmarked) [LJ 1196]
TRUE

Consider the molecule OCC(O)CN1CCN(c2ccc(F)c(C(F)(F)F)c2)CC1 (centres unmarked) [LJ 1121] . Is its LD50 at 360 h strictly less than 1000 mg/kg?
TRUE

# strict comparison: is reported LD50 at 360 h < 1000 mg/kg? input = OCC(O)CN1CCN(c2cccc(C(F)(F)F)c2)CC1 (centres unmarked) [LJ 1142]
FALSE

# TODO verify LD50 at 360 h < 1000 mg/kg strictly for this molecule: OCCN1CCN(c2ccc(F)c(C(F)(F)F)c2)CC1 [LJ 1195]
TRUE

* * *

# Assay Info: Acute toxicity in Mice
# Format: in vivo, mice (SWISS, EOPS, NMRI/Han, female)
# Condition Summary: mouse, in vivo, iv, intravenous administration, read-out: LD 0 (maximum dose tolerated)
Label Y when MTD at 360 h >= 50 mg/kg; otherwise N.

Given the entry OC(CN1CCN(c2cccc(C(F)(F)F)c2)CC1)CN1CCN(c2cccc(C(F)(F)F)c2)CC1 [LJ 1152] , answer whether its MTD at 360 h meets or surpasses 50 mg/kg.
N

Form field: MTD at 360 h at least 50 mg/kg? Entry: O=C(CN1CCN(c2cccc(C(F)(F)F)c2)CC1)CN1CCN(c2cccc(C(F)(F)F)c2)CC1 [LJ 1163]
N

Can O=C1CCCCC1CN1CCN(c2cccc(C(F)(F)F)c2)CC1 (stereo not shown) [LJ 1144] be said to have MTD at 360 h at or above 50 mg/kg?
N

Can OC1CCCCC1N1CCN(c2cccc(C(F)(F)F)c2)CC1 (stereo not shown) [LJ 1143] be said to have MTD at 360 h at or above 50 mg/kg?
Y

Record OCC(O)CN1CCN(c2cccc(C(F)(F)F)c2)CC1 (stereo not shown) [LJ 1142] ; criterion: MTD at 360 h no lower than 50 mg/kg. Met?
Y

Is it the case that O=C1CCCC1CN1CCN(c2cccc(C(F)(F)F)c2)CC1 (stereo not shown) [LJ 1160] has MTD at 360 h reaching or exceeding 50 mg/kg?
Y
